assayInfo: Peptide hydrogel formation, vial-inverting method
Format: physicochemical
conditionNotes: concentration at which the state was recorded: lowest of 30, 60, 90, 120 mM that gave a gel; 120 mM for non-gelating peptides
Where a SMILES comes first, the peptide text is derived from it.
In this section we review reported Concentration values for a set of compounds.
assayEndpoint: Concentration (µM)

[
  {
    "compound": "CC(C)C[C@H](NC(=O)[C@@H](N)CO)C(=O)N[C@H](C(=O)N[C@H](C(=O)O)C(C)C)C(C)C [SLVV] (H-SLVV-OH)",
    "unitTag": "µM",
    "dataValue": 60000
  },
  {
    "compound": "NC(=O)CC[C@H](NC(=O)[C@H](CCC(N)=O)NC(=O)[C@H](CCC(N)=O)NC(=O)[C@@H](N)CCC(N)=O)C(=O)O [QQQQ] (H-QQQQ-OH)",
    "unitTag": "µM",
    "dataValue": 120000
  },
  {
    "compound": "C[C@@H](O)[C@H](NC(=O)[C@@H](N)CO)C(=O)N[C@@H](Cc1ccc(O)cc1)C(=O)N[C@@H](Cc1ccccc1)C(=O)O [STYF] (H-STYF-OH)",
    "unitTag": "µM",
    "dataValue": 60000
  },
  {
    "compound": "CC(C)C[C@H](NC(=O)[C@H](Cc1c[nH]c2ccccc12)NC(=O)[C@@H](NC(=O)[C@@H](N)CCCCN)C(C)C)C(=O)O [KVWL] (H-KVWL-OH)",
    "unitTag": "µM",
    "dataValue": 60000
  },
  {
    "compound": "CC(C)[C@H](NC(=O)[C@@H](N)Cc1ccc(O)cc1)C(=O)N[C@@H](Cc1ccccc1)C(=O)N[C@@H](C)C(=O)O [YVFA] (H-YVFA-OH)",
    "unitTag": "µM",
    "dataValue": 120000
  },
  {
    "compound": "N[C@@H](Cc1ccccc1)C(=O)NCC(=O)N[C@@H](Cc1c[nH]c2ccccc12)C(=O)N[C@@H](Cc1c[nH]c2ccccc12)C(=O)O [FGWW] (H-FGWW-OH)",
    "unitTag": "µM",
    "dataValue": 120000
  }
]

###

assayInfo: Transmission electron microscope (negative staining) of peptide assemblies
conditionNotes: TEM, negative staining with uranyl acetate, 120 kV; line of the table gives 30 mM
Where a SMILES comes first, the peptide text is derived from it.
assayEndpoint: Morphology

[
  {
    "compound": "CC[C@H](C)[C@H](NC(=O)[C@H](CC(C)C)NC(=O)[C@@H](NC(=O)[C@@H](N)CC(C)C)[C@@H](C)O)C(=O)O [LTLI] (H-LTLI-OH)",
    "assayEndpoint": "Morphology",
    "dataValue": "sheet"
  },
  {
    "compound": "CC[C@H](C)[C@H](NC(=O)[C@H](CC(C)C)NC(=O)[C@@H](NC(=O)[C@@H](N)CC(C)C)C(C)C)C(=O)O [LVLI] (H-LVLI-OH)",
    "assayEndpoint": "Morphology",
    "dataValue": "sheet"
  },
  {
    "compound": "NC(=O)C[C@H](N)C(=O)N[C@@H](Cc1c[nH]c2ccccc12)C(=O)N[C@@H](Cc1c[nH]c2ccccc12)C(=O)N[C@@H](Cc1ccccc1)C(=O)O [NWWF] (H-NWWF-OH)",
    "assayEndpoint": "Morphology",
    "dataValue": "sphere"
  },
  {
    "compound": "N[C@@H](Cc1ccccc1)C(=O)N[C@@H](Cc1ccccc1)C(=O)N[C@@H](Cc1ccccc1)C(=O)N[C@@H](Cc1ccccc1)C(=O)O [FFFF] (H-FFFF-OH)",
    "assayEndpoint": "Morphology",
    "dataValue": "sheet"
  },
  {
    "compound": "N[C@@H](CS)C(=O)N[C@@H](Cc1c[nH]c2ccccc12)C(=O)N[C@@H](Cc1ccccc1)C(=O)N[C@@H](CO)C(=O)O [CWFS] (H-CWFS-OH)",
    "assayEndpoint": "Morphology",
    "dataValue": "fibre"
  },
  {
    "compound": "CSCC[C@H](NC(=O)[C@@H](N)Cc1ccccc1)C(=O)N[C@@H](CC(C)C)C(=O)N[C@@H](Cc1ccccc1)C(=O)O [FMLF] (H-FMLF-OH)",
    "assayEndpoint": "Morphology",
    "dataValue": "sheet"
  },
  {
    "compound": "C[C@H](NC(=O)[C@@H](N)Cc1c[nH]c2ccccc12)C(=O)N[C@@H](Cc1ccc(O)cc1)C(=O)N[C@@H](Cc1ccccc1)C(=O)O [WAYF] (H-WAYF-OH)",
    "assayEndpoint": "Morphology",
    "dataValue": "fibre"
  },
  {
    "compound": "CC[C@H](C)[C@H](NC(=O)[C@@H](NC(=O)[C@@H](N)Cc1c[nH]c2ccccc12)[C@@H](C)CC)C(=O)N[C@@H](Cc1ccccc1)C(=O)O [WIIF] (H-WIIF-OH)",
    "assayEndpoint": "Morphology",
    "dataValue": "fibre"
  },
  {
    "compound": "CC[C@H](C)[C@H](N)C(=O)N[C@H](C(=O)N[C@H](C(=O)N[C@@H](Cc1ccccc1)C(=O)O)[C@@H](C)CC)C(C)C [IVIF] (H-IVIF-OH)",
    "assayEndpoint": "Morphology",
    "dataValue": "sphere"
  }
]

###

assayInfo: Peptide hydrogel formation, vial-inverting method
Assay type: physicochemical
conditionNotes: 60 mM peptide in ultrapure water; pH 6.5-8.5 (1 N NaOH), ultrasonication, standing 48 h; vial-inverting method; no gel at 30 mM
Where a SMILES comes first, the peptide text is derived from it.

[
  {
    "molecule": "O=C(O)[C@H](Cc1ccc(O)cc1)NC(=O)[C@H](Cc1ccc(O)cc1)NC(=O)[C@H](Cc1c[nH]c2ccccc12)NC(=O)[C@@H]1CCCN1 [PWYY] (H-PWYY-OH)",
    "State": "gel"
  },
  {
    "molecule": "CC(C)C[C@H](NC(=O)[C@@H](NC(=O)CN)C(C)C)C(=O)N[C@@H](Cc1ccccc1)C(=O)O [GVLF] (H-GVLF-OH)",
    "State": "gel"
  },
  {
    "molecule": "CC(C)C[C@H](NC(=O)[C@H](CO)NC(=O)[C@H](CC(C)C)NC(=O)[C@@H](N)CC(C)C)C(=O)O [LLSL] (H-LLSL-OH)",
    "State": "gel"
  },
  {
    "molecule": "CC(C)[C@H](NC(=O)[C@@H]1CCCN1)C(=O)N[C@@H](Cc1ccccc1)C(=O)N[C@@H](Cc1c[nH]c2ccccc12)C(=O)O [PVFW] (H-PVFW-OH)",
    "State": "gel"
  },
  {
    "molecule": "CSCC[C@H](N)C(=O)N[C@H](C(=O)N[C@@H](Cc1ccccc1)C(=O)N1CCC[C@H]1C(=O)O)C(C)C [MVFP] (H-MVFP-OH)",
    "State": "gel"
  },
  {
    "molecule": "CC[C@H](C)[C@H](N)C(=O)N[C@@H](Cc1ccccc1)C(=O)N[C@@H](Cc1ccc(O)cc1)C(=O)N[C@H](C(=O)O)[C@@H](C)O [IFYT] (H-IFYT-OH)",
    "State": "gel"
  }
]

###

assayInfo: Peptide hydrogel formation, vial-inverting method
Assay type: physicochemical
conditionNotes: concentration at which the state was recorded: lowest of 30, 60, 90, 120 mM that gave a gel; 120 mM for non-gelating peptides
Description: After validating the efficiency of APHC in predicting tetrapeptide hydrogels, we detailed the phase state of 165 synthesized tetrapeptides and the observed assembly behavior in an aqueous solution. This work defines hydrogel formation as a self-supporting, non-flowing mixture of water and hydrogelator by the vial-inverting method. […]
Where a SMILES comes first, the peptide text is derived from it.
The following compounds are shown together with reported Concentration values.

[
  {
    "compound": "C[C@@H](O)[C@H](NC(=O)[C@H](Cc1ccccc1)NC(=O)[C@H](Cc1c[nH]c2ccccc12)NC(=O)[C@@H](N)CS)C(=O)O [CWFT] (H-CWFT-OH)",
    "Concentration, µM": 120000
  },
  {
    "compound": "CC[C@H](C)[C@H](NC(=O)[C@@H](NC(=O)[C@@H](N)Cc1ccccc1)C(C)C)C(=O)N[C@@H](Cc1ccc(O)cc1)C(=O)O [FVIY] (H-FVIY-OH)",
    "Concentration, µM": 30000
  },
  {
    "compound": "CC[C@H](C)[C@H](N)C(=O)N[C@@H](CCSC)C(=O)N[C@H](C(=O)N[C@H](C(=O)O)C(C)C)C(C)C [IMVV] (H-IMVV-OH)",
    "Concentration, µM": 30000
  },
  {
    "compound": "CSCC[C@H](NC(=O)[C@H](Cc1c[nH]c2ccccc12)NC(=O)[C@@H](N)Cc1c[nH]c2ccccc12)C(=O)N[C@@H](Cc1ccccc1)C(=O)O [WWMF] (H-WWMF-OH)",
    "Concentration, µM": 120000
  },
  {
    "compound": "CC(C)C[C@H](NC(=O)[C@@H](NC(=O)[C@@H](N)CC(C)C)[C@@H](C)O)C(=O)N[C@@H](Cc1ccccc1)C(=O)O [LTLF] (H-LTLF-OH)",
    "Concentration, µM": 30000
  },
  {
    "compound": "CC[C@H](C)[C@H](NC(=O)[C@@H](N)CS)C(=O)N[C@@H](Cc1ccc(O)cc1)C(=O)N[C@@H](Cc1ccccc1)C(=O)O [CIYF] (H-CIYF-OH)",
    "Concentration, µM": 60000
  }
]

FYI, the data here is from paper PMC10313671.
